Please provide measured cell viability for the entries that follow.
System: Vero E6
Assay: cell viability relative to DMSO; higher = less toxic
Details: 72 h; 1 nM
Please append the unit to your numeric answer.

What value of cell viability has been recorded for this entry: N=C(N)Nc1ccc2[nH]c3c(c2c1)C[C@@]1(O)[C@H]2Cc4ccc(O)c5c4[C@@]1(CCN2CC1CC1)[C@H]3O5 [GNTI]
101%

Bench note: what cell viability did CNCc1ccc(-c2[nH]c3cc(F)cc4c3c2CCNC4=O)cc1 [rucaparib] show?
96.4%

Return reported cell viability; argument: NC(=O)c1[nH]cnc1O [SM-108]
102%

Look up cell viability: CC(C)N(CCNC(=O)CN1CCCC1=O)C(C)C [pramiracetam]
93.9%

So what's the measured cell viability for this one? CN(C)C/C=C(/c1ccc(Br)cc1)c1cccnc1 [zimelidine]
101%

Which measured cell viability value corresponds to COc1cc2c(cc1OC)C(c1ccc(N)cc1)=NNC(=O)C2 [CFM-2] ?
98.7%

Bench note: what cell viability did CC(C)(Oc1ccc(Cl)cc1)C(=O)O [clofibric-acid] show?
102%

Consider the compound NS(=O)(=O)OC[C@@H]1C[C@@H](n2ccc3c(N[C@H]4CCc5ccccc54)ncnc32)C[C@@H]1O [pevonedistat] and give its measured cell viability.
96.9%

* * *

Tested on: Calu-3
Assay: drug sensitivity score (DSS) for viability; higher = more toxic; extreme values may be limits of the assay
Settings: 72 h
Kindly supply the reported drug sensitivity score values for the records listed here.
Answer with a bare number; do not write a unit.

Requested field: drug sensitivity score. Item: CC1(C)CC[C@]2(NC(=O)C(C)(F)F)CC[C@]3(C)[C@H](C(=O)C=C4[C@@]5(C)C=C(C#N)C(=O)C(C)(C)[C@@H]5CC[C@]43C)[C@@H]2C1 [Omaveloxolone (RTA-408)]
15.4

Please report the recorded drug sensitivity score for C#C[C@]1(O)CC[C@H]2[C@@H]3CCC4=CC(=NO)CC[C@@H]4[C@H]3CC[C@@]21CC (mixture of isomers) .
0

# get_value(readout='drug sensitivity score', item= Cc1c(Cn2c(C)nc3c(C(=O)O)cc(N4CCOCC4)cc32)cccc1C(F)(F)F )
0.2

Quick check: drug sensitivity score of Cc1ccc(/C(=C\CN2CCCC2)c2cccc(/C=C/C(=O)O)n2)cc1 ?
0

Which drug sensitivity score is listed for CC(C)(Oc1ccc(Cl)cc1)C(=O)O ?
0

May I ask what drug sensitivity score has been recorded for CCn1cc(C(=O)O)c(=O)c2cc(F)c(N3CCNCC3)cc21 ?
0

drug sensitivity score lookup needed for C=CCN1C[C@H](C(=O)N(CCCN(C)C)C(=O)NCC)C[C@@H]2c3cccc4[nH]cc(c34)C[C@H]21 , thanks.
0

Which drug sensitivity score value belongs to CCCCCCCCCCCCCCCCCC(=O)OCC(O)CO (stereo not given) ?
0

I have this compound here, Nc1n[nH]c2nc3ccccc3nc12 , and I need its recorded drug sensitivity score.
1.4

Form field: reported drug sensitivity score of CC(C)NC(=O)COc1cccc(-c2nc(Nc3ccc4[nH]ncc4c3)c3ccccc3n2)c1
0

* * *

Tested on: A549-ACE2 infected with SARS-CoV-2
Test: cell count relative to DMSO; higher = less toxic
Details: 3 µM; 24 h
quantityName: cell count (%)
Report only the number, with the unit % understood.

Param item = CC(C)C[C@H](NC(=O)CNC(=O)c1cc(Cl)ccc1Cl)B(O)O ; retrieve measured cell count.
59

Record request: cell count value, item O=C(c1ccc(-c2ccc(Cl)cc2)o1)N(Cc1ccccn1)c1ccc(N2CCNCC2)cc1
117

Please give the measured cell count for this compound: CCN1CCN(Cc2ccc(C(=O)Nc3ccc(C)c(Oc4ccc5c(c4)CC(=O)N5)c3)cc2C(F)(F)F)CC1
121

What does the record list as cell count for CC(Cc1ccccc1)NCCC(c1ccccc1)c1ccccc1 (stereo not given) ?
119

Form field: reported cell count of O=C(NCc1ccccc1)c1csc(Nc2ccncn2)n1
88
